Data credit: ChEMBL document CHEMBL3734705

Assay: Cytotoxicity against human MOLT4 cells assessed as growth level at 10 uM after 48 hrs by SRB assay
Type: functional, MOLT-4
Property Measured: Activity (%)

C=C1CC[C@@H]2[C@](C)(COC(C)=O)[C@H](OC(C)=O)CC[C@@]2(C)[C@@H]1CC(NCc1cccc(Cl)c1)C1=CCOC1=O (mixture of isomers) ... 21.89
C=C1CC[C@@H]2[C@](C)(COC(C)=O)[C@H](OC(C)=O)CC[C@@]2(C)[C@@H]1CC(Nc1ccc(S(=O)(=O)NC(C)=O)cc1)C1=CCOC1=O (mixture of isomers) ... 0.12
C=C1CC[C@@H]2[C@](C)(COC(C)=O)[C@H](OC(C)=O)CC[C@@]2(C)[C@@H]1CC(NCCCCCCCC)C1=CCOC1=O (mixture of isomers) ... 36.47
